- SYSTEM_UNDER_TEST: D(2) dopamine receptor (Homo sapiens) (UniProt P14416)
- Sequence (P14416 whole entry): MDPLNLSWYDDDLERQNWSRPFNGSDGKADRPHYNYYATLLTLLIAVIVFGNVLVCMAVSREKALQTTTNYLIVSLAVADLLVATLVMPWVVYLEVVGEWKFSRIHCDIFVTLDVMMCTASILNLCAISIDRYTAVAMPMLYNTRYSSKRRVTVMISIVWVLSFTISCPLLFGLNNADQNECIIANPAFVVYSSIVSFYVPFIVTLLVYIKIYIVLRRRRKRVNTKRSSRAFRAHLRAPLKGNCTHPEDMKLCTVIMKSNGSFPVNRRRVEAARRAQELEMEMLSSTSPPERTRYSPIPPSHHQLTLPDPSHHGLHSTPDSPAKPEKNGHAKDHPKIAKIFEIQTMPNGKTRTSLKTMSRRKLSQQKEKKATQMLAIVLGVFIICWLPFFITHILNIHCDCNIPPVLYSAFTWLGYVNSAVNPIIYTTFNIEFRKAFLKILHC
- MEASUREMENT_SETUP: Compound concentration 10 µM; call rule not given here
Outcomes: active, inactive

STRUCTURE_SMILES: O=C(O)COc1cccc(CN(Cc2ccc(-n3cccn3)cc2)S(=O)(=O)c2cccnc2)c1
GROUP: inactive

STRUCTURE_SMILES: COc1cc2c(CCNC(C)=O)c[nH]c2cc1Cl
GROUP: inactive

STRUCTURE_SMILES: O=c1ccn([C@@H]2O[C@H](COP(=O)(O)OP(=O)(O)OP(=O)(O)O)[C@@H](O)[C@H]2O)c(=O)[nH]1
GROUP: active

====

- SYSTEM_UNDER_TEST: Alpha-2B adrenergic receptor (Homo sapiens)
- MEASUREMENT_SETUP: Compound concentration 10 µM
- Description: PDSP Primary Binding target: ADRA2B - Compounds are tested at 10 uM concentration, plate are incubated at room temperature in the dark for 90 minutes. Reaction are stopped by vacuum filtration onto 0.3% polyethyleneimine soaked filter mats using Filtermate harvester. Scintilation cocktail is then melted onto microwave-dried filters on a hot plate and the radio activity is counted in Microbia counter.

STRUCTURE_SMILES: COc1ccc(/C=C/CCCCOc2ccc(C(=O)c3cccc(C(=O)O)c3)cc2CCC(=O)O)cc1
inhibition, %: 29.1
--
STRUCTURE_SMILES: Cc1cccc(NC(=O)N[C@@H]2N=C(c3ccccc3)c3ccccc3N(C)C2=O)c1
inhibition, %: 7.07
--
STRUCTURE_SMILES: CC(C)NC(=O)c1ccc(C#Cc2ccncc2)cn1
inhibition, %: -0.82
--
STRUCTURE_SMILES: COc1ccc2cc(S(=O)(=O)N[C@H](CC(=O)N[C@H](Cc3ccc(CN4[C@H](C)CCC[C@@H]4C)cc3)C(=O)N(C)C(C)C)c3ccc4c(c3)OCO4)ccc2c1
inhibition, %: 33.5
--
STRUCTURE_SMILES: C[C@]1(C(=O)N(CCCC(=O)O)Cc2cccc(Cl)c2)CCN1C(=O)c1csc2ccccc12
inhibition, %: 13.3
--
STRUCTURE_SMILES: c1nc(CC2CCNCC2)c[nH]1
inhibition, %: 23

====

- SYSTEM_UNDER_TEST: UniProtKB P07550
- Sequence (P07550 whole entry, looked up): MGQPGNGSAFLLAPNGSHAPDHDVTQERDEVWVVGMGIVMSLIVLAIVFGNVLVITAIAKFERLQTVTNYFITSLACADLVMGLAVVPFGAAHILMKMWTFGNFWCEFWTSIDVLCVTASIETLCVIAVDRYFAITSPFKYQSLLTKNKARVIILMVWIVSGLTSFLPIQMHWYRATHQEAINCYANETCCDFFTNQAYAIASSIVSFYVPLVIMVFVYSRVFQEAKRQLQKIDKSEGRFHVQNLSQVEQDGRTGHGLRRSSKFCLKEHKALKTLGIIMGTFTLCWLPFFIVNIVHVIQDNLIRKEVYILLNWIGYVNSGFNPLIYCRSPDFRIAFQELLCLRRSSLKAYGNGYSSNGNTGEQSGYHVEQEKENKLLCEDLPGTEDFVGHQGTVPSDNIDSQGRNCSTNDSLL
- MEASUREMENT_SETUP: Compound concentration 10 µM
- Description: PDSP Primary Binding target: ADRB2 - Compounds are tested at 10 uM concentration, plate are incubated at room temperature in the dark for 90 minutes. Reaction are stopped by vacuum filtration onto 0.3% polyethyleneimine soaked filter mats using Filtermate harvester. Scintilation cocktail is then melted onto microwave-dried filters on a hot plate and the radio activity is counted in Microbia counter.
Parameter inhibition: see the listing below.

STRUCTURE_SMILES: N#Cc1cccc(C(=O)Nc2cc(-c3ccccc3)nn2-c2ccccc2)c1
inhibition [%]: 1.08
--
STRUCTURE_SMILES: Cc1c(C(=O)NC2CCCCC2)sc2nc3ccc(N)cc3n12
inhibition [%]: 5.51
--
STRUCTURE_SMILES: CCCSc1nc(N[C@@H]2C[C@H]2c2ccc(F)c(F)c2)c2nnn([C@@H]3C[C@H](OCCO)[C@@H](O)[C@H]3O)c2n1
inhibition [%]: 5.05
--
STRUCTURE_SMILES: Cc1cccc([C@H](C)c2c[nH]cn2)c1C
inhibition [%]: 20.7
--
STRUCTURE_SMILES: Cc1cc(C)cc(C(=O)N(C)[C@H](Cc2ccc(-c3ccccc3)cc2)C(=O)N[C@@H](Cc2c[nH]c3ccccc23)C(=O)O)c1
inhibition [%]: 3.37
--
STRUCTURE_SMILES: CC[C@@H]1CN2C(=O)N(C)c3nc(-c4ccccc4)[nH]c3C2=N1
inhibition [%]: 65.2
--
STRUCTURE_SMILES: O=C(O)c1n[nH]c2c1C[C@H]1C[C@@H]21
inhibition [%]: 3.75
--
STRUCTURE_SMILES: OC[C@H]1O[C@@H](n2cnc3c(NC4CCCC4)ncnc32)[C@H](O)[C@@H]1O
inhibition [%]: -3.65

# credit: ChEMBL document CHEMBL5442219
